methodDescription: yeast display, Sf9 membrane polyspecificity reagent, FACS + sequencing; frameworks hold sequencing errors
endpoint: polyreactivity (PSR sort gate)

Below, each entry is followed by its recorded polyreactivity (PSR sort gate) result.
Reported polyreactivity (PSR sort gate) ( QVQHVESGGGLVQAGGSLRLSCAASGRIFAVNTMGWYRPAPVKERELVAAITSTGRTYYADSVKGRFTISRDNAKNTVYLQMNSLKPEDSAVYYCAADFRYPYAHLPYGYWGQGTQVTVSS ) = high polyreactivity

Reported polyreactivity (PSR sort gate) ( QVQLEESGGGLVQAGGSLRLSCAGSGNIFPSYALGWYRQAPGKERELVAAITYSAVSTYYADSVKGRFTISRDNAKNTVYLQMNSLKPEDTAVYYCAKETTEVPGVGSQEMDFWGQGTQVTVSS ) = low polyreactivity

Reported polyreactivity (PSR sort gate) ( QVQLVESGGGLVQAGGSLSLSCDASGRIFVVKAMGWYRQAPGKERELVAAITRRGGSTYADSVKGRFTISRDNAKNTVYLQMNSLKPEDTAVYYCNAESYYGIFSYKYDYWGQGTQVTVSS ) = high polyreactivity

Reported polyreactivity (PSR sort gate) ( QVQLVESGGGLVQAGGSLRLSCAASGSTFDIYAMGWYRQAPGKERELVAAITSGGSTYADSVKGRFTISRDNAKNTVYLQKNSLKPVETAVYYSNADRWFGNYRHLTFLNDYWGQGTQVTVSA ) = low polyreactivity

More entries:
Reported polyreactivity (PSR sort gate) ( QVQLVESGGGLVQAGGSLRLSCAASGSIFSVYAMGWYRQAPGKERELVAAISTRGGSTYYADSVKGRFTISRDNAKNTVYLQMNSLKPEDTAVYYCAKRWPQYTDYKPMYYWGLGTQVTVSS ) = high polyreactivity
